# Assay Target: T1, RSV postfusion F (postF), subtype A (respiratory syncytial virus, subtype A, UniProt P03420 26-513)
# T1 construct: also called F ΔFP; Postfusion subtype A
# Method Summary: BLI, IgG
Measurement Name: binding result

Take a look at these entries with their results.
ADI-21017 (antibody, V domains shown) VH: QVQLVESGTEVKKPGASVKVSCKASGYTFTNYGITWVRQAPGQGLEWMGCISGYNGNTNYAQNLQGRVTMTTDTSTNTAYMELRSLISDDTAVYYCARDTGLTAAALLDYWGQGTLVTVSS VL: DIVLTQSPLSLPVTLGQPASISCRSSQSLVYSDGNTYLSWFQQRPGQSPRRLIYKVSNRDSGVPDRFGGSGSGTYFTLKISRVEAEDVGIYYCMQAIHWPLTFGGGTKVEIK ... no binding
ADI-20964 (antibody, V domains shown) VH: QVQLVQSGAEVKKPGASVKVSCKASGYTFTHYGISWVRQAPGQGLEWMGWISAYNGNTNYAQKLQGRVTMTTDTSTSTAYMEVRSLRYDDTAVYYCARDVPVEAATSPEFWGQGTLVTVSS VL: DIVMTQTPLSLPVTLGQPASISCRSSQSLVYSDGNTYLSWFQQRPGQSPRRLIYKVSNRDSGVPNRFSGSGSGTDFTLKISRVEAEDVGVYYCVQNTHWPAYTFGQGTKVEIK ... no binding
ADI-20969 (antibody, V domains shown) VH: EVQLVESGGGLVKPGGSLRLSCAASGFKFSSYTMNWVRQAPGKGLEWVSSVSASSSYIFYADSVQGRFIISRDNAQNSLYLQMNSLRADDTAVYYCARDQYGPGHYYNPAWFDPWGQGTLVTVSS VL: QPVLTQPPSVSGAPGQRVTISCTGTSSNIGAGYDVHWYKQLPGTAPKVLIYGNTNRPSGIPDRFSGSKSGTSASLAITGLKAEDEADYYCQSYDRSGSKVFGTGTKLTVL ... no binding
ADI-21051 (antibody, V domains shown) VH: QVQLVESGPGLVRPSQTLSLTCNVSGDFISRGTYYWSWIRQSAGKGLEWIGRIYTSGITDYSPSLKSRVTISVDTSKNQFFLKLASVTAADTAVYYCARGRGYYDSPWGQGTLVTVSS VL: ETTLTQSPATLSLSPGERATLSCRASESVSTFLGWYQQKPGQAPRLLIYDASNRASGVPARFSGSGSGTDFTLTISSLEPEDFAVYYCQLRNKWLTFGPGTKVDIK ... no binding

Entry ADI-14415 (antibody, V domains shown, also called Ab 81) VH: EVQLVESGPGLVKPSETLSLTCTVSGGSISNYYWTWIRQPPGEGLEWIGYIYYTGSTNYNPSLKNRVTISVDTPKNQFSLKLNSVTAADTAVYYCARGWGYSYGYESYYNGLDVWGQGTTVTVSS VL: DIQLTQSPSFLSASVGDRVTITCRASQGISSYLAWYQLKPGKAPKLLIYAAATLETGVPSRFSGSGSGTEFTLTISGLQPEDFATYYCQQLNSFPFTFGPGTKVEIK has what binding result?
no binding
